Entries and their measured tissue uptake at 1 h follow.
Assay: Ex vivo biodistribution in PC-3 tumor-bearing mice
Details: mouse, large intestine, Uptake in large intestine, 1 h post-injection
# unit: %ID/g | format: bare number

>>> reported_result("CC(C)C[C@@H](CN1CSC[C@H]1C(N)=O)NC(=O)[C@H](Cc1cnc[nH]1)NC(=O)CN(C)C(=O)[C@@H](NC(=O)[C@H](C)NC(=O)[C@H](Cc1c[nH]c2ccccc12)NC(=O)[C@H](CCC(N)=O)NC(=O)[C@@H](Cc1ccccc1)NC(=O)CN1CCC(NC(=O)CN2CCN(CC(=O)O)CCN(CC(=O)O)CCN(CC(=O)O)CC2)CC1)C(C)C [[^177Lu]Lu-TacsBOMB5, metal not drawn]")
0.31

Below: the item to evaluate.
Ask: Recorded tissue uptake at 1 h of CC(C)C[C@H](NC(=O)[C@H](Cc1cnc[nH]1)N(C)C(=O)CNC(=O)[C@@H](NC(=O)[C@H](C)NC(=O)[C@H](Cc1c[nH]c2ccccc12)NC(=O)[C@H](CCC(N)=O)NC(=O)[C@@H](Cc1ccccc1)NC(=O)CN1CCC(NC(=O)CN2CCN(CC(=O)O)CCN(CC(=O)O)CCN(CC(=O)O)CC2)CC1)C(C)(C)C)C(=O)N1CSC[C@H]1C(N)=O [[^177Lu]Lu-LW01110, metal not drawn] , please.
Result: 1
